- System: UO-31 renal
- ASSAY_NOTES: NCI-60 one-dose screen, 48 h (100 = growth as untreated, 0 = no growth, -100 = all killed)
- CONDITION_INFO: 10 µM
About 83,000 compounds went through this panel and 20% of them were active in at least one assay; those are over-represented in the sample as a whole. Calls of active or inactive are those of the source. The calls were made as follows: active = growth percent below 10; inactive = the rest.
# growth per entry
MEASURE_NAME: growth

>>> experimental_result("COc1ccc(C(=O)NC(=S)N2CCN(c3ncnc4c3cnn4-c3ccccc3)CC2)cc1")
"69% (inactive)"
>>> experimental_result("COc1ccc(CN2[C@@H](C(=O)NCc3ccc(C(=O)NO)cc3)Cc3c([nH]c4ccccc34)[C@@H]2C)cc1")
"36% (inactive)"
>>> experimental_result("CCOC(=O)CNC(=O)CN(Cc1ccccc1)C(=O)[C@@]1(C)CCC[C@]2(C)[C@H]3CC4C(C(C)C)=C[C@]3(CC[C@H]21)[C@@H]1C(=O)CCC(=O)[C@H]41")
"47.9% (inactive)"
>>> experimental_result("CCOC(=O)C1=C(N)N(c2ccccc2)C2=C(C(=O)CC(C)(C)C2)C1c1ccccc1OC (centres undefined)")
"74.4% (inactive)"

----------
- System: NCI-H460 lung
- ASSAY_NOTES: NCI-60 one-dose screen, 48 h
- CONDITION_INFO: 10 µM
The panel holds about 83,000 compounds, 20% with a hit somewhere; the sample as a whole holds those more often. Calls of active or inactive are those of the source. Rule for the calls: active = growth percent below 10; inactive = the rest.
Labels: active, inactive

>>> cat("CC(=O)c1cc(C(=O)c2ccc3c(c2)NC(=O)CO3)n2ccc3ccccc3c12")
"inactive"
>>> cat("COc1ccc(-c2nc(Nc3ccccc3S(N)(=O)=O)c3ccccc3n2)cc1")
"active"
>>> cat("Cc1ccc(S(=O)(=O)c2nc(-c3ccccc3)oc2S(=O)(=O)CC(=O)N2CCCC2)cc1")
"inactive"
>>> cat("N#Cc1c(NC(=O)c2ccc(C(F)(F)F)cc2)sc2c1CCC(O)=C2")
"inactive"
>>> cat("CCCCCCCCCCCCCCCCCCCC(=O)NCCc1c[nH]c2ccc(O)cc12")
"inactive"
>>> cat("COc1ccc(/C=N/N=C(\\C)c2ccc3c(c2)Nc2ccccc2S3)cc1O")
"inactive"
>>> cat("O=C(NC(=S)N1CCN(c2ncnc3c2cnn3-c2ccccc2)CC1)c1ccc(Cl)cc1")
"inactive"
>>> cat("Cc1ccc(-c2nc(Nc3ccccc3C(=O)O)c3ccccc3n2)cc1")
"active"
>>> cat("C=CCn1c(SCC(=O)Nc2ccc(C(=O)/C=C/c3ccccc3)cc2)nnc1-c1c[nH]c2ccccc12")
"inactive"
>>> cat("O=c1c2ccccc2nc(COc2ccccc2)n1/N=C/c1ccc(N2CCCC2)cc1")
"inactive"
>>> cat("CC(=O)Nc1ccc(-n2cnc3cc(-c4ccc(O)cc4)ccc32)cc1C")
"inactive"
>>> cat("Cc1cc(C)nc(NS(=O)(=O)c2ccc(N/C(N)=N/c3nccc(-c4ccccc4)n3)cc2)n1")
"inactive"
>>> cat("Cc1ccc(F)cc1N/C=c1\\s/c(=C(\\C#N)C(=O)Nc2ccccc2)n(-c2ccccc2)c1=O")
"inactive"
>>> cat("CCOC(=O)C1=C(N)N(c2ccc(Cl)cc2)C2=C(C(=O)CC(C)(C)C2)C1c1ccc(N2CCOCC2)cc1 (centres undefined)")
"inactive"
>>> cat("COC(=O)CC1CC1C1Cc2c(nc(N(C)S(C)(=O)=O)nc2C(C)C)-c2ccc(F)cc21 (centres undefined)")
"inactive"
>>> cat("Cc1ccc(C(=O)CSc2nnc(-c3c[nH]c4ccccc34)n2-c2ccccc2)cc1")
"inactive"
>>> cat("C=C1CCC2C3(C)COC(c4ccccc4F)OC3CCC2(C)C1C/C=C1/C(=O)OCC1O (centres undefined)")
"active"
>>> cat("COc1ccc(C(C)=C(c2ccc(OCCCN(C)C)cc2)c2ccc(OCCCN(C)C)cc2)cc1")
"active"
>>> cat("N#Cc1c(NC(=O)c2ccc(C(F)(F)F)c(Cl)c2)sc2c1CCC(=O)C2")
"active"

----------
# growth per entry
- Tested on: U251 CNS
- ASSAY_NOTES: NCI-60 one-dose screen, 48 h (100 = growth as untreated, 0 = no growth, -100 = all killed)
- CONDITION_INFO: 10 µM
The panel holds about 83,000 compounds, 20% with a hit somewhere; the sample as a whole holds those more often. The source made the active and inactive calls. How the source made its calls: active means growth percent below 10; inactive means the rest.
MEASURE_NAME: growth

>>> experimental_result("CN1CCN(Cc2ccc(C(=O)Nc3cccc(Nc4ccc5c(O)cccc5n4)c3)cc2C(F)(F)F)CC1")
"-35.3% (active)"
>>> experimental_result("CC(=O)Nc1nc(-c2ccc(N3CCN(C)CC3)c(NS(=O)(=O)c3cccc4c(N(C)C)cccc34)c2)cs1")
"28.1% (inactive)"
>>> experimental_result("CN1CCc2c(sc3ncnc(N/N=C/c4cn(-c5ccccc5)nc4-c4ccc(Br)cc4)c23)C1")
"44.9% (inactive)"
>>> experimental_result("CC(=O)Nc1ccc(-n2cnc3cc(-c4ccc(O)cc4)ccc32)cc1F")
"16.7% (inactive)"
>>> experimental_result("O=C(CSc1nnc(-c2ccc3nc(-c4ccc(Cl)cc4)[nH]c3c2)o1)Nc1ccc(Cl)cc1")
"-57.7% (active)"
>>> experimental_result("COc1ccc(-c2nc(-c3ccccc3)c(-c3ccccc3)n2-c2ccc(S(=O)(=O)Nc3ncccn3)cc2)cc1OC")
"71.8% (inactive)"
>>> experimental_result("COc1cc2c3c(n(CCCNCCO)c(=O)c2cc1OC)-c1nc2c(cc1C3=O)OCO2")
"12.4% (inactive)"
>>> experimental_result("CN1CCN(c2ccc(Nc3nc(N4CCN(S(=O)(=O)c5ccc(Cl)cc5)CC4)c4sccc4n3)cc2)CC1")
"-85.2% (active)"
>>> experimental_result("COc1ccc(OC)c(-c2cc(-c3c[nH]c4ccccc34)nc(N)c2C#N)c1")
"-1.3% (active)"
>>> experimental_result("COc1cc2c(c(OC)c1OC)C(=O)CC(c1cccc(NC(=O)c3cccc(N)c3)c1)O2 (configuration not stated)")
"81.1% (inactive)"
>>> experimental_result("COc1ccc(NC(=O)Nc2ccc(OCC(=O)N=Nc3c(O)[nH]c4ccc([N+](=O)[O-])cc34)cc2)cc1")
"25% (inactive)"
>>> experimental_result("O=C(COc1ccc(NC(=O)Nc2ccc(Cl)cc2)cc1)N=Nc1c(O)[nH]c2ccc([N+](=O)[O-])cc12")
"-67.6% (active)"
>>> experimental_result("COc1ccc(-c2nc(S(=O)(=O)c3ccc(C)cc3)c(S(=O)(=O)CC(=O)N(C)Cc3ccccc3)o2)cc1")
"23.6% (inactive)"
>>> experimental_result("S=c1nc(-c2ccccc2)cc(-c2cc3ccccc3nc2Cl)[nH]1")
"83.2% (inactive)"
>>> experimental_result("O=c1[nH]c2ccccc2cc1CSc1ccc(Nc2nccc(-c3ccc(Cl)cc3)n2)cc1")
"-72.3% (active)"
>>> experimental_result("O=C1Nc2cc(Cl)ccc2/C1=C/c1cccc(OCc2ccccc2)c1")
"-64.6% (active)"
>>> experimental_result("Cn1cc(/C=N/Nc2cccc(Cl)n2)c2ccccc21")
"56.2% (inactive)"
>>> experimental_result("CC1=C2C(=C[C@@](C)(CO)[C@@H]2O)/C(=N\\N)[C@](C)(O)C12CC2")
"12% (inactive)"
>>> experimental_result("N#Cc1c(NC(=O)c2ccc(C(F)(F)F)cc2)sc2c1CCC(O)=C2")
"28.2% (inactive)"
>>> experimental_result("COc1ccc(C(=O)NC(=S)N2CCN(c3ncnc4c3cnn4-c3ccccc3)CC2)cc1")
"55.1% (inactive)"
>>> experimental_result("CCCn1c(=O)c2[nH]c(-c3ccc(OCc4nc5ccc(C#N)cc5[nH]4)cc3)nc2n(CCC)c1=O")
"70.6% (inactive)"
>>> experimental_result("CC(=O)c1ccc(Nc2nc(SC(C)C)nc(-c3ccccc3)c2C#N)cc1")
"10.2% (inactive)"
>>> experimental_result("CC(=O)Oc1ccccc1C(=O)Oc1ccc(C(=O)/C=C/c2ccncc2)cc1")
"14.7% (inactive)"
>>> experimental_result("N#Cc1c(NC(=O)c2ccc(C(O)(C(F)(F)F)C(F)(F)F)cc2)sc2c1CCC(=O)C2")
"-91.1% (active)"
>>> experimental_result("COC(=O)CC1CC1C1Cc2c(nc(N(C)S(C)(=O)=O)nc2C(C)C)-c2ccc(F)cc21 (configuration not stated)")
"84.9% (inactive)"
>>> experimental_result("Brc1ccc(/C=C/c2n(Cc3ccc4ccccc4c3)c3ccccc3[n+]2Cc2ccc3ccccc3c2)cc1")
"-88.9% (active)"
>>> experimental_result("O=C(N/C(=C1/OCCN1Cc1ccccc1)[P+](c1ccccc1)(c1ccccc1)c1ccccc1)c1ccccc1")
"14.3% (inactive)"
>>> experimental_result("O=C(Nc1nc2ccc([N+](=O)[O-])cc2s1)Nc1cc(Cl)ccc1I")
"-23.5% (active)"
>>> experimental_result("O=C(O)CCCCCCCCCCN1C(=O)/C(=C/c2cnc(-c3ccccc3)s2)SC1=S")
"59.5% (inactive)"
>>> experimental_result("COc1cc(/C=C/C(=O)c2ccc(NC(=O)CN3C(=O)NC(C)(c4ccccc4)C3=O)cc2)cc(OC)c1OC (configuration not stated)")
"-15.7% (active)"
>>> experimental_result("C=C1CC[C@H](C(=C)C)[C@H]2C=C(C)C(=O)C3=C(C(=O)[C@@](C)(O)C3)[C@H]12")
"-95.9% (active)"
>>> experimental_result("CCOC(=O)N/C(=C1/OCCN1C)[P+](c1ccccc1)(c1ccccc1)c1ccccc1")
"66.3% (inactive)"
>>> experimental_result("COc1cc2c(cc1OC)/C(=C\\c1sc(Nc3ccc(O)cc3)nc1O)C(C(=O)O)=N2")
"18.6% (inactive)"
>>> experimental_result("CC(C)(C)c1ccc(NCc2cn(-c3ccc(C(=O)O)cc3)nc2-c2ccc(C#N)cc2)cc1")
"22.8% (inactive)"
>>> experimental_result("Cn1cc(-c2cc(N)n3nc(-c4c[nH]c5ccc(Br)cc45)cc3n2)c2cccnc21")
"-83.9% (active)"
>>> experimental_result("COc1ccc(/C(CSc2nnc(-c3c[nH]c4ccccc34)n2-c2ccccc2)=N/O)cc1")
"39.4% (inactive)"
>>> experimental_result("C/C(=N\\N=C\\c1ccc(N(C)C)cc1)c1ccc2c(c1)Nc1ccccc1S2")
"29.4% (inactive)"
